# Tested target: Acetylcholinesterase (Homo sapiens)
# Sequence (P22303 whole entry): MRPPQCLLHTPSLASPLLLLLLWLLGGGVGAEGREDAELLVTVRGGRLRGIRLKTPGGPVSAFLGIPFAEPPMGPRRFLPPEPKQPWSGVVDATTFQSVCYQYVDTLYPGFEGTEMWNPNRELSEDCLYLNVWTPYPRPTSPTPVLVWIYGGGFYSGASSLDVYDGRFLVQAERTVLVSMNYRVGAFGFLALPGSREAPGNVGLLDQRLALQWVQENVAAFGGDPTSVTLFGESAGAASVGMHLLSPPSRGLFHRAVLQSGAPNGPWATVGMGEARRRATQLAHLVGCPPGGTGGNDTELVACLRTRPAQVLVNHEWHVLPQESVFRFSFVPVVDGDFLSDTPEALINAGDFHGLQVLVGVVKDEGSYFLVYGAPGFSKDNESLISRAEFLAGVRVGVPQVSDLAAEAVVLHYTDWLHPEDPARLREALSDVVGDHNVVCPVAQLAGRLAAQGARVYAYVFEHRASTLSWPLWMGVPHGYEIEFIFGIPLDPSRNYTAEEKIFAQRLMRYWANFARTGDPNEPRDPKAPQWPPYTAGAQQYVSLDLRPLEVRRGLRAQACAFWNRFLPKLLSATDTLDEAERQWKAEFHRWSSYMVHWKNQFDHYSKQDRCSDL
# Assay details: DRUGMATRIX: Acetylcholinesterase enzyme inhibition (substrate: acetylthiocholine)
# Type: cell-based, HEK293
# Condition details: hek293; Not Active = under 50% inhibition at 10 µM
Test readout: IC50

INSERT INTO assay_data (substance, result) VALUES
  ('NYSTATIN', 'Not Active'),
  ('SODIUM ORTHOVANAD', 'Not Active'),
  ('GRAMICIDIN', 'Not Active'),
  ('AURANOFIN', 'Not Active'),
  ('MANGANESE CHLORIDE ANHYDROUS', 'Not Active'),
  ('GENTAMICIN', 'Not Active'),
  ('GADOPENTETATE DIMEGLUMINE', 'Not Active');

====

# Assay details: DRUGMATRIX: Potassium Channel [KATP] radioligand binding (ligand: [3H] Glyburide)
# Type: cell membranes, Membrane
# Condition details: hit-t15; Not Active = under 50% inhibition at 10 µM
Test readout: IC50

INSERT INTO assay_data (molecule, test_readout, result) VALUES
  ('Cn1c(=O)c2c(ncn2CC(O)CO)n(C)c1=O (stereo not given) [DYPHYLLINE]', 'IC50', 'Not Active'),
  ('C[C@H]1O[C@@H](n2cc(F)c(=O)[nH]c2=O)[C@H](O)[C@@H]1O [DOXIFLURIDINE]', 'IC50', 'Not Active'),
  ('Brc1c(NC2=NCCN2)ccc2nccnc12 [BRIMONIDINE]', 'IC50', 'Not Active'),
  ('Cn1c(=O)c2nc[nH]c2n(C)c1=O.O [THEOPHYLLINE]', 'IC50', 'Not Active'),
  ('C#CC1(O)CC[C@H]2[C@@H]3CCC4=CC(=O)CC[C@@H]4[C@H]3CC[C@@]21CC (stereo not given in full) [NORGESTREL]', 'IC50', 'Not Active'),
  ('CC(=O)[C@H]1[C@H](C#N)C[C@H]2[C@@H]3CC=C4C[C@@H](O)CC[C@]4(C)[C@H]3CC[C@@]21C [PREGNENOLONE CARBONITRILE]', 'IC50', 'Not Active'),
  ('COC(=O)Nc1nc2ccc(C(=O)c3cccs3)cc2[nH]1 [NOCODAZOLE]', 'IC50', 'Not Active'),
  ('Cc1c(C)c2c(c(C)c1O)CCC(C)(CN1CCN(c3cc(N4CCCC4)nc(N4CCCC4)n3)CC1)O2 (stereo not given)', 'IC50', 'Not Active'),
  ('Cc1nnc2n1-c1ccc(Cl)cc1C(c1ccccc1)=NC2 [ALPRAZOLAM]', 'IC50', 'Not Active'),
  ('CO[C@@H]1[C@@H](OC)[C@H](C)[C@@](O)(CC(=O)O)O[C@H]1[C@H](C)[C@H]1O[C@@]2(CC[C@@](C)([C@H]3CC[C@@](C)([C@@H]4O[C@@H]([C@H]5O[C@](C)(O)[C@H](C)C[C@@H]5C)C[C@@H]4O[C@@H]4C[C@H](OC)[C@@H](OC)[C@H](C)O4)O3)O2)C[C@H](O)[C@H]1C [MADURAMICIN ACID]', 'IC50', 'Not Active'),
  ('CCC(=O)O[C@]1(C(=O)CCl)[C@@H](C)C[C@H]2[C@@H]3CCC4=CC(=O)C=C[C@]4(C)[C@@]3(F)[C@@H](O)C[C@@]21C [CLOBETASOL PROPIONATE]', 'IC50', 'Not Active'),
  ('Cn1c(=O)c2[nH]cnc2n(C)c1=O.Cn1c(=O)c2[nH]cnc2n(C)c1=O.NCCN [AMINOPHYLLINE]', 'IC50', 'Not Active'),
  ('COc1ccc2c3c1O[C@H]1C[C@@H](O)C=C[C@@]31CCN(C)C2 [GALANTAMINE]', 'IC50', 'Not Active'),
  ('COc1ccc2cc3[n+](cc2c1OC)CCc1cc2c(cc1-3)OCO2.[Cl-] [BERBERINE CHLORIDE]', 'IC50', 'Not Active'),
  ('O=c1cc(N2CCOCC2)oc2c(-c3ccccc3)cccc12 [LY-294002]', 'IC50', 'Not Active'),
  ('C[C@@H]1O[C@@H](O[C@@H]2C=C3CC[C@@H]4[C@H](CC[C@]5(C)[C@@H](c6ccc(=O)oc6)CC[C@]45O)[C@@]3(C)CC2)[C@H](O)[C@H](O)[C@H]1O [PROSCILLARIDIN]', 'IC50', 'Not Active'),
  ('CN/C(=N\CCSCc1nc[nH]c1C)NC#N [CIMETIDINE]', 'IC50', 'Not Active'),
  ('Nc1cc(N2CCCCC2)nc(N)[n+]1[O-] [MINOXIDIL]', 'IC50', 'Not Active'),
  ('OC(CCCN1CCCCC1)(c1ccccc1)c1ccccc1 [DIPHENIDOL]', 'IC50', 'Not Active'),
  ('CC(C)NCC(O)c1ccc(O)c(O)c1 (stereo not given) [ISOPROTERENOL]', 'IC50', 'Not Active'),
  ('O=C(O)c1cn(-c2ccc(F)cc2)c2cc(N3CCNCC3)c(F)cc2c1=O [SARAFLOXACIN]', 'IC50', 'Not Active'),
  ('COc1cc2nc(N3CCN(C(=O)c4ccco4)CC3)nc(N)c2cc1OC [PRAZOSIN]', 'IC50', 'Not Active'),
  ('CO[C@H]1/C=C/O[C@@]2(C)Oc3c(C)c(O)c4c(O)c(c(/C=N/N5CCN(C6CCCC6)CC5)c(O)c4c3C2=O)NC(=O)/C(C)=C\C=C\[C@H](C)[C@H](O)[C@@H](C)[C@@H](O)[C@@H](C)[C@H](OC(C)=O)[C@@H]1C [RIFAPENTINE]', 'IC50', 'Not Active'),
  ('O=C(Oc1ccccc1C(=O)O)c1ccccc1O [SALSALATE]', 'IC50', 'Not Active'),
  ('C=CCc1ccc(O)c(OC)c1 [EUGENOL]', 'IC50', 'Not Active'),
  ('CCN(CC)CCNC(=O)c1cc(S(C)(=O)=O)ccc1OC [TIAPRIDE]', 'IC50', 'Not Active'),
  ('NC(=O)C[S+]([O-])C(c1ccccc1)c1ccccc1 (stereo not given) [MODAFINIL]', 'IC50', 'Not Active'),
  ('CN(C)[C@@H]1C(O)=C(C(N)=O)C(=O)[C@@]2(O)C(O)=C3C(=O)c4c(O)ccc(Cl)c4[C@@](C)(O)[C@H]3C[C@@H]12 [CHLORTETRACYCLINE]', 'IC50', 'Not Active'),
  ('CC[C@H]1CN2CCc3cc(OC)c(OC)cc3[C@@H]2C[C@@H]1C[C@H]1NCCc2cc(OC)c(OC)cc21 [EMETINE]', 'IC50', 'Not Active'),
  ('Cc1cc2c(OCC(CNC(C)(C)C)OC(=O)c3ccccc3)cccc2[nH]1 (stereo not given) [BOPINDOLOL]', 'IC50', 'Not Active');
